biological target: human PMNL LTB4 receptor (Homo sapiens); construct: endogenous in cells; assay: Binding affinity of 3H-LTB4 antagonist to human PMNL LTB4 receptor (inhibition of specific 3H-LTB4 binding); details: 1 nM 3H-LTB4, human PMNLs, 4° C., 20 min
Sequence (Q15722 whole entry): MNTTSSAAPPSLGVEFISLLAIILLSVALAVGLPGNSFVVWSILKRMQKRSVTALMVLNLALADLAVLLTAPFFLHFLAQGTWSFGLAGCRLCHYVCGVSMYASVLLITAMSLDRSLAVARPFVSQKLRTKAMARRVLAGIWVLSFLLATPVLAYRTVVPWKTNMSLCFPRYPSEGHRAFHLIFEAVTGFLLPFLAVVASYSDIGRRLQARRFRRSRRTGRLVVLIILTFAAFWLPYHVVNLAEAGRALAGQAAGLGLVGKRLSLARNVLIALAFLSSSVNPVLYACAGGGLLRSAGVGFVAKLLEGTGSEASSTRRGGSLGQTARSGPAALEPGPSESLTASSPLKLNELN
pIC50: −log10 of the molar value.
Could you label it t if measured pIC50 is 7 or higher, and f otherwise?

INSERT INTO measurements (molecule, class_assignment) VALUES
  ('COc1ccc(/C=C/CCCCOc2ccc(N(S(C)(=O)=O)S(C)(=O)=O)cc2CCC(=O)O)cc1', 't'),
  ('COc1ccc(/C=C/CCCCOc2cccc(OCCCCC(=O)N(C)C)c2CCC(=O)O)cc1', 't'),
  ('COc1ccc(/C=C/CCCCOc2ccc(C(O)CCCC(=O)N(C)C)cc2CCC(=O)O)cc1 (centres unmarked)', 't'),
  ('CN(C)C(=O)CCCC(=O)Nc1ccc(OCCCC/C=C/c2ccc(Cl)cc2)c(CCC(=O)O)c1', 'f'),
  ('COc1ccc(CCC(O)/C=C/CCCCOc2ccc(NC(=O)CCCC(=O)N(C)C)cc2CCC(=O)O)cc1 (centres unmarked)', 'f'),
  ('CN(C)C(=O)CCCC(=O)Nc1ccc(OCCCC/C=C/C(O)C2CCCCC2)c(CCC(=O)O)c1 (centres unmarked) [5 (e)]', 'f'),
  ('COc1ccc(/C=C/CCCCOc2ccc(NC(=O)CCCC(=O)Nc3nccs3)cc2CCC(=O)O)cc1', 't'),
  ('C=CCOc1ccc(/C=C/CCCCOc2ccc(NC(=O)CCCC(=O)N(C)C)cc2CCC(=O)O)cc1', 't');

Exam item: decide whether the reported pIC50 for `COc1ccc(/C=C/CCCCOc2ccc(N(C(C)=O)S(C)(=O)=O)cc2CCC(=O)O)cc1` is at least 7.
t

Identify whether the reported pIC50 of the following molecule is 7 or greater: CCCCCCCCC(O)/C=C/CCCCOc1ccc(N2C(=O)CCCS2(=O)=O)cc1CCC(=O)O (centres unmarked)
t

Test whether the molecule `COc1ccc(/C=C/CCCCOc2ccc(NC(=O)CCCC(=O)N(C)C)cc2CCC(=O)O)cc1` records pIC50 of 7 or higher.
t

Decide: is the reported value of pIC50 for `COc1ccc(/C=C/CCCCOc2ccc(NC(=O)CCCC(=O)O)cc2/C=C/C(=O)O)cc1` equal to or greater than 7?
f

Tell me whether pIC50 is at least 7 here: `CCCCCCCCCCCCOc1ccc(NC(=O)CCCC(=O)N(C)C)cc1CCC(=O)O`
f

Form field: pIC50 at least 7? Entry: `COc1cccc(/C=C/CCCCOc2ccc(NC(=O)CCCC(=O)N(C)C)cc2CCC(=O)O)c1`
f
